# test: reversal of MRP1-mediated doxorubicin resistance, pilot screen, H69AR cells, doxorubicin co-treatment (AID 601)
# assay-setup: H69AR cells + 2 uM doxorubicin, CellTiter-Glo, 72 h; at 10 µM; hits give high values
measurement-kind: differential viability (reversal) (%)
Dear colleague, please return just the value in %, with no unit written.

What value of differential viability (reversal) has been recorded for this entry: CCOC(=O)N1CCC(Nc2c(-c3ccc(C)cc3)c(=O)c2=O)CC1 11.5

What value of differential viability (reversal) has been recorded for this entry: O=C(Nc1ccc(F)cc1)N(Cc1ccco1)Cc1cc2cc3c(cc2[nH]c1=O)OCO3 35.4

What value of differential viability (reversal) has been recorded for this entry: CCc1cc2c(NCCC(=O)O)nc(C)nc2s1 -12.1

What value of differential viability (reversal) has been recorded for this entry: CCN(CC)CCOC(=O)c1cccc(OC)c1 -4.21

What value of differential viability (reversal) has been recorded for this entry: CCCn1cnc2c(cnn2-c2ccc(F)cc2)c1=O 1.56

What value of differential viability (reversal) has been recorded for this entry: CC(=O)Nc1ccc(S(=O)(=O)n2cnc(C)c2)cc1 3.98

What value of differential viability (reversal) has been recorded for this entry: CCOc1cc(C2Nc3ccccc3C(=O)N2c2ccccc2OC)ccc1O (stereo unspecified) 0.125

What value of differential viability (reversal) has been recorded for this entry: CCOC(=O)C(C(C)=O)c1nc(C)nc2c1nnn2Cc1ccccc1Cl (stereo unspecified) -9.73

What value of differential viability (reversal) has been recorded for this entry: Cc1cc(NCCN2CCOCC2)n2nc(C)c(-c3ccccc3)c2n1 12.8

What value of differential viability (reversal) has been recorded for this entry: O=S(=O)(c1ccc2c(c1)OCCO2)N1CCN(Cc2ccc3c(c2)OCO3)CC1 -6.71

What value of differential viability (reversal) has been recorded for this entry: C=CCn1c(=O)[nH]c2cc(C(=O)N3CCN(c4ccc(C(C)=O)cc4)CC3)ccc2c1=O 13.4

----------
What differential viability (reversal) was measured for each of the following?
# test: reversal of MRP1-mediated doxorubicin resistance, pilot screen, H69AR cells, doxorubicin co-treatment (AID 601)
# assay-setup: H69AR cells + 2 uM doxorubicin, CellTiter-Glo, 72 h; at 10 µM; hits give high values
Dear colleague, please return just the value in %, with no unit written.

What value of differential viability (reversal) has been recorded for this entry: CCN(CC)CCCNC1CCS(=O)(=O)C1 (stereo not drawn) 4.3

What value of differential viability (reversal) has been recorded for this entry: CCOCCCNC(=O)C1CCC(CNS(=O)(=O)c2cccc3nsnc23)CC1 (stereo not drawn) -5.31

What value of differential viability (reversal) has been recorded for this entry: CCOc1ccccc1N1CC(O)=C(c2nc3ccccc3s2)C1=N -45.7

What value of differential viability (reversal) has been recorded for this entry: COC(=O)c1ccc2c(=O)n(CC3CCCO3)c(=S)[nH]c2c1 (stereo not drawn) 2.35

What value of differential viability (reversal) has been recorded for this entry: Oc1cccc(Nc2nc(NCC3CCCO3)c3ccccc3n2)c1 (stereo not drawn) -19.3

What value of differential viability (reversal) has been recorded for this entry: Cc1ccc2nc3c(cc2c1)CN(Cc1ccco1)C(=NCC1CCCO1)S3 (stereo not drawn) -1.93

What value of differential viability (reversal) has been recorded for this entry: CCOC(=O)c1cnc(SC2CC(=O)N(c3ccc(OC)c(OC)c3)C2=O)nc1N (stereo not drawn) 14

What value of differential viability (reversal) has been recorded for this entry: Cn1c(=O)n(CCN2CCOCC2)c(=O)c2c1nc1n2CCN1c1ccccc1 4.43

What value of differential viability (reversal) has been recorded for this entry: Cc1cc(Br)c(S(=O)(=O)n2nnc3ccccc32)cc1C -4.02

What value of differential viability (reversal) has been recorded for this entry: CC(=O)c1ccccc1OCCn1nnc(-c2ccc(C)cc2)n1 5.44

What value of differential viability (reversal) has been recorded for this entry: COc1cccc(Nc2nc(=O)[nH]nc2C)c1 10.9

What value of differential viability (reversal) has been recorded for this entry: Cc1cccc(NC(=O)CCn2ccnc2C)c1 3.98

What value of differential viability (reversal) has been recorded for this entry: Cc1nc2sc(C(c3cccc(F)c3)N3CCN(C(=O)c4ccco4)CC3)c(O)n2n1 (stereo not drawn) 2.58

What value of differential viability (reversal) has been recorded for this entry: CCOC(=O)C1=C(CC)Nc2ccccc2N=C1NC(=O)Nc1ccccc1OC -0.52

What value of differential viability (reversal) has been recorded for this entry: N#Cc1nc(-c2ccccc2Cl)oc1N1CCOCC1 3.5

What value of differential viability (reversal) has been recorded for this entry: O=C(NCC1CCCO1)c1cc(-c2ccncc2)nc2ccc(S(=O)(=O)N3CCOCC3)cc12 (stereo not drawn) 8.86

What value of differential viability (reversal) has been recorded for this entry: CC1CCC(NC(=O)C2CCN(c3cnccn3)CC2)CC1 (stereo not drawn) 11.3

What value of differential viability (reversal) has been recorded for this entry: Cc1cc(C(=O)Nc2nnc(C(F)(F)F)s2)no1 5.13

What value of differential viability (reversal) has been recorded for this entry: Cc1ccc(Cn2c(SCC(N)=O)nc3c2c(=O)n(C)c(=O)n3C)cc1 3.46

What value of differential viability (reversal) has been recorded for this entry: CCN(CC)CCCNc1oc(-c2cccc(Cl)c2)nc1C#N -0.39

What value of differential viability (reversal) has been recorded for this entry: CCCCN1C[C@H](O)[C@@H](O)[C@H](O)[C@H]1CO -3.9

What value of differential viability (reversal) has been recorded for this entry: Cc1c(NC(=O)C(C)OC(=O)c2cc3c4ccccc4n(C)c3s2)c(=O)n(-c2ccccc2)n1C (stereo not drawn) -10

What value of differential viability (reversal) has been recorded for this entry: COc1cccc(NC(=O)N2CCC(N3CCCCC3)CC2)c1 -2.56

----------
What inhibition was measured for each of the following?
# test: 384-well plate pilot, post-Golgi transport modulator project, inhibition of yeast transport mutant growth (AID 636)
# assay-setup: absorbance 615 nm, about 18 h, hits give high values
Dear colleague, please return just the value in %, with no unit written.

What value of inhibition has been recorded for this entry: COc1ccccc1NC(=O)Cc1noc(CSc2cc(C)c3ccccc3n2)n1 -4.59

What value of inhibition has been recorded for this entry: COC(=O)CS(=O)(=O)c1nnc([C@H](Cc2ccccc2)NC(=O)OC(C)(C)C)o1 -5.45

What value of inhibition has been recorded for this entry: O=C1CCC(C(=O)N(Cc2ccco2)C2(C(=O)NC3CCCC3)CCCCC2)N1 (stereo not given) -7.81

What value of inhibition has been recorded for this entry: O=C(CN1CCN(c2ncc(C(F)(F)F)cc2Cl)CC1)Nc1ccc2c(c1)OCO2 0.65

What value of inhibition has been recorded for this entry: O=C(CC(SCCO)c1ccc2c(c1)OCO2)c1ccco1 (stereo not given) -7.57

What value of inhibition has been recorded for this entry: Cc1nc(CNS(=O)(=O)c2cccc(F)c2)cs1 -1.95

What value of inhibition has been recorded for this entry: COc1ccc(-n2ncc3c(NCc4cccs4)ncnc32)cc1 -6.71

What value of inhibition has been recorded for this entry: COc1ccc(S(=O)(=O)NCCOc2ccccc2)cc1OC 6.76

What value of inhibition has been recorded for this entry: Cc1cccc(N2CCN(C(=O)c3ccc(NS(=O)(=O)c4c(C)noc4C)cc3)CC2)c1C -3.68

What value of inhibition has been recorded for this entry: COc1ccccc1N1CCN(S(=O)(=O)CC23CCC(CC2=O)C3(C)C)CC1 (stereo not given) -0.52

----------
# test: growth inhibitors of H69AR lung tumor, primary screen, human, duplicate replicates (AID 580);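 further: 100% = mean luminescence of untreated wells and 0% = no signal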
# assay-setup: H69AR lung tumor cells viability, ATP luminescence, 72 h; at 10 µM; hits give low values
measurement-kind: viability (%)
Dear colleague, please return just the value in %, with no unit written.

What value of viability has been recorded for this entry: CCN1CCN(Cc2c(C)[nH]c3ccc(OC)cc3c2=O)CC1 93.5

What value of viability has been recorded for this entry: OC(CN1CCCCC1)Cn1c(C(F)(F)F)nc2ccccc21 (stereo unspecified) 83.4

What value of viability has been recorded for this entry: COc1cccc(NS(=O)(=O)c2ccc3[nH]cc(C(=O)NC4CC4)c(=O)c3c2)c1 70.1

What value of viability has been recorded for this entry: CCOC(=O)CSC1=C(C#N)C(c2ccc(Cl)cc2)C(C(=O)OC)C(=O)N1 (stereo unspecified) 88.5

What value of viability has been recorded for this entry: COc1cc(NC2c3ccccc3C(=O)N2c2ccc(C)cn2)cc(OC)c1OC (stereo unspecified) 88.7

What value of viability has been recorded for this entry: O=C(NC12CC3CC(CC(C3)C1)C2)N1CCN(C(=O)C2CCCO2)CC1 (stereo unspecified) 95.6

What value of viability has been recorded for this entry: CCCCCCNS(=O)(=O)c1ccc(Cl)s1 89.1

What value of viability has been recorded for this entry: Cc1cc(=O)oc2ccc(OCC(=O)N(Cc3ccc(F)cc3)Cc3ccco3)cc12 72

What value of viability has been recorded for this entry: O=C(Nc1ccon1)c1cccc(S(=O)(=O)N2CCCC2)c1 87.8

What value of viability has been recorded for this entry: Cc1nc2ccc(S(=O)(=O)NCC(=O)N3CCc4ccccc4C3)cc2s1 93.5

What value of viability has been recorded for this entry: CS(=O)(=O)N(CC(=O)Nc1ccc2c(c1)OCO2)Cc1ccc(Cl)cc1 95

What value of viability has been recorded for this entry: Cc1cnc(NC(=O)CSc2nnc(-c3ccccc3)n2Cc2ccccc2)s1 90.2

What value of viability has been recorded for this entry: CC1CCN(C(=O)c2ccc(C(=O)N3CCC(C)CC3)cc2)CC1 101

What value of viability has been recorded for this entry: O=C(O)c1ccc(S(=O)(=O)Cc2ccccc2)cc1 87.3

What value of viability has been recorded for this entry: COC(=O)c1ccc(CSc2nc3ccccc3c(=O)n2Cc2ccco2)o1 84.4

What value of viability has been recorded for this entry: CCSC(SCC)[C@H](O)[C@@H](O)[C@H](O)[C@H](O)CO 101

What value of viability has been recorded for this entry: CC1CCCC(NC(=O)CN2CCN(Cc3ccc(Cl)cc3)C2=O)C1C (stereo unspecified) 103

What value of viability has been recorded for this entry: CCCC(OC(=O)CN1C(=O)COc2ccccc21)C(=O)NC1CCCC1 (stereo unspecified) 91.7

What value of viability has been recorded for this entry: O=C(Nc1ccncc1)C1c2ccccc2Oc2ccccc21 92.3

What value of viability has been recorded for this entry: Cc1cc2oc(C(=O)NC3CCS(=O)(=O)C3)c(C)c2cc1C (stereo unspecified) 93.7

What value of viability has been recorded for this entry: CCCN(CC1CC1)C(=O)Nc1ccccc1C 104

What value of viability has been recorded for this entry: O=C(NCC(F)(F)F)Nc1cccnc1 99.6

What value of viability has been recorded for this entry: Cc1noc(C)c1CSc1nnc2scc(-c3ccc(Cl)cc3)n12 91.6

What value of viability has been recorded for this entry: CCOC(=O)N1CCC(NC(=O)c2ccc(OC)c(CN3CC(=O)N4CCCC4C3=O)c2)CC1 (stereo unspecified) 96

What value of viability has been recorded for this entry: COc1ccc2oc(C)c(C(=O)Cn3ccnc3)c2c1 87.8

What value of viability has been recorded for this entry: O=C(CSc1oc(-c2ccco2)nc1S(=O)(=O)c1ccccc1)NCC1CCCO1 (stereo unspecified) 86.5

What value of viability has been recorded for this entry: CC1CC(C)CN(CCCNC(=O)c2ccc3c(c2)NC(=O)C(N2CCCCC2)S3)C1 (stereo unspecified) 87.8

What value of viability has been recorded for this entry: Nn1c(SCC(=O)Nc2ccccc2)nnc1-c1cccnc1 88.1

What value of viability has been recorded for this entry: COC(=O)CN(c1ccc(F)cc1)S(=O)(=O)c1ccccc1 92.1

What value of viability has been recorded for this entry: C=CCn1c(=S)[nH]c2nc3c(cc2c1=O)COC(C)(C)C3 77.8

What value of viability has been recorded for this entry: CC(=O)Nc1nc(C)c(-c2csc(Nc3ccc(O)cc3)n2)s1 13.3

What value of viability has been recorded for this entry: O=c1c2[nH]c3cccc(Cl)c3c2ncn1CCN1CCCCC1 92.6

What value of viability has been recorded for this entry: COc1cc(NC(=O)c2ccc(COCC(F)(F)F)o2)cc(OC)c1OC 99.6

What value of viability has been recorded for this entry: CCc1nnc(NC(=O)CSc2nc(-c3ccc(OC)cc3)ns2)s1 93.1

What value of viability has been recorded for this entry: Cc1cc(C)n2nc(SCC(=O)N(C)Cc3ccccc3)nc2n1 81.7

What value of viability has been recorded for this entry: CCCn1c(SCC(=O)Nc2ccccc2C(=O)OCC)nc2c1c(=O)n(C)c(=O)n2C 95.7

What value of viability has been recorded for this entry: O=[n+]1cc(-c2ccc(F)cc2)n([O-])c2c1CCC2 90.7

What value of viability has been recorded for this entry: NC(=O)C1CCN(c2nc(-c3ccccc3)nc3ccccc23)CC1 66.3

What value of viability has been recorded for this entry: CC(=O)CCc1ccc(OCCCCn2cncn2)cc1 92.9

What value of viability has been recorded for this entry: CCOC(=O)CC(C#N)c1cn(C)c2ccccc12 (stereo unspecified) 88

What value of viability has been recorded for this entry: CC(C)OC(=O)c1cc(NC(=O)C2C3CCC(O3)C2C(=O)O)cc(C(=O)OC(C)C)c1 (stereo unspecified) 92.9

What value of viability has been recorded for this entry: COC(=O)c1ccccc1NC(=O)Nc1cccs1 82.4

What value of viability has been recorded for this entry: O=C(CCCN1C(=O)c2ccccc2C1=O)N1CCC(c2ccccc2)C1 (stereo unspecified) 96.4

What value of viability has been recorded for this entry: c1ccc(CSCc2cn3ccsc3n2)cc1 99.1

What value of viability has been recorded for this entry: Cc1nnc(Nc2ccccn2)c2ccccc12 87.3

What value of viability has been recorded for this entry: CCOc1cc2[nH]c(=O)n(CCC(=O)NCCc3ccc(OC)c(OC)c3)c(=O)c2cc1OCC 96.8
